B1: LINE1-mini (parent)
chain: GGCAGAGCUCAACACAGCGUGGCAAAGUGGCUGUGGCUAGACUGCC

Variants of: B1
Protocol description: self-cleavage, relative activity (ratio to wild type); higher = more cleavage; in vitro, sequencing; the parent is a self-cleaving ribozyme
Measurement label: self-cleavage
The reply should be a number, written without any unit.

> print(dat)
   mutant.name  measurement.label  observed.result
1     A4U U32A      self-cleavage             0.06

Asked: I'd like to know its self-cleavage. The variant in question is A6C A25G
Given back: 0.18

Asked: Can you check G30A A41U next?
Given back: 0.6

Asked: Can you check G1A A25C next?
Given back: 1.36

Asked: Can you check G2A U38G next?
Given back: 0.05

Asked: Can you check U38C A39G next?
Given back: 0.06

Asked: Can you check G2A G22A next?
Given back: 0.8

Source listed as the RNAGym collection of RNA variant scans (doi:10.7554/elife.90254).
